- procedureDetails: Solvency of the active substance in monomers (visual inspection)
- Assay type: physicochemical
- Parameters: key: Excellent: The active substance was not found to have been precipitated in the solution of active substance both immediately after the preparation and after the preservation for 7 days.; Good: The active substance was found to have been precipitated in the solution of active substance immediately after the preparation, but the active substance was not found to have been precipitated in the solution of active substance after the preservation for 7 days.; Poor: The active substance was found to have been precipitated in the solution of active substance both immediately after the preparation and after the preservation for 7 days
- conditionParameters: 3 parts active substance in 100 parts Butyl Methacrylate; 25° C., 7 days
valueType: Solvency of the active substance

O=[N+]([O-])O[C@H]1CO[C@H]2[C@@H]1OC[C@H]2O[N+](=O)[O-] [ISDN, isosorbide dinitrate] = Excellent
COc1ccc(OC)c(C(O)CN)c1 (stereo not shown) [DMAE, 2-amino-1-(2′,5′-dimethoxyphenyl)ethanol] = Poor
COc1ccc2c(c1)c(CC(=O)O)c(C)n2C(=O)c1ccc(Cl)cc1 [IMT, indomethacin] = Poor
CC(C)(C)NCC(O)c1ccccc1Cl (stereo not shown) [TB, tulobuterol] = Excellent

====

Let's look at some compounds and their measured Residual Rate (% by weight) after 7 Days.
- procedureDetails: Residual rate of the active substance in monomer solution (HPLC)
- Type: physicochemical
- conditionParameters: in Acrylic Acid; 25° C.
// note: answer is a bare numeric in % by weight

COc1ccc2c(c1)c(CC(=O)O)c(C)n2C(=O)c1ccc(Cl)cc1 = 100
COc1ccc(OC)c(C(O)CN)c1 (stereo not shown) = 97
O=[N+]([O-])O[C@H]1CO[C@H]2[C@@H]1OC[C@H]2O[N+](=O)[O-] [ISDN, isosorbide dinitrate] = 100

Proceeding to the next compound to report its Residual Rate (% by weight) after 7 Days.
Prompt: What value of measured Residual Rate (% by weight) after 7 Days is listed for CC(C)(C)NCC(O)c1ccccc1Cl (stereo not shown) ?
Completion: 96

====

- procedureDetails: Residual rate of the active substance in monomer solution (HPLC)
- Assay type: physicochemical
- conditionParameters: in Dodecyl Methacrylate; 25° C.
Let's look at some molecules and their measured Residual Rate (% by weight) after 7 Days.
// note: answer is a bare numeric in % by weight

CC(C)(C)NCC(O)c1ccccc1Cl (stereo not shown) = 100
COc1ccc2c(c1)c(CC(=O)O)c(C)n2C(=O)c1ccc(Cl)cc1 = 100
COc1ccc(OC)c(C(O)CN)c1 (stereo not shown) = 99

Proceeding to the next molecule to report its Residual Rate (% by weight) after 7 Days.
Prompt: What value of measured Residual Rate (% by weight) after 7 Days is listed for O=[N+]([O-])O[C@H]1CO[C@H]2[C@@H]1OC[C@H]2O[N+](=O)[O-] [ISDN, isosorbide dinitrate] ?
Completion: 100

Provenance of the data: patent US20090317452A1
